# measurement target: T1, HIS-tagged extracellular domain of canine IL-4 receptor alpha chain (canine)
# T1 construct: also called canine IL-4 receptor alpha chain ECD HIS-tagged protein; extracellular domain of canine IL-4Rα
# T1 chain: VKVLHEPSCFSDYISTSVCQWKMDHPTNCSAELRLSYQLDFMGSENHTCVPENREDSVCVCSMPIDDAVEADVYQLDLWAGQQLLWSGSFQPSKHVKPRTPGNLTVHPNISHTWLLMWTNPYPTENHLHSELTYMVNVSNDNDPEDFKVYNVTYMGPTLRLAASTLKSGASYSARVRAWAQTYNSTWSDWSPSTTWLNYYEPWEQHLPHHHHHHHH
# test name: ELISA on plate-coated HIS-tagged canine IL-4Rα ECD, detection with HRP goat anti-mouse IgG
property label: EC50 (read off the curve)

Query (binder): mouse anti-canine IL-4Rα monoclonal antibody 11B6 (antibody, V domains shown, Hybridoma-derived mouse antibody; also called mAb 11B6) VH: EVQLQESGPGLAKPSQTLSLTCSVTGYSITSDYWNWIRKFPGNKLEYMGYINYSGNTYYNPSLKSRISITRDTSKNQYYLQLNSVTTEDTATYYCARYGGLRQGSWHFDVWGPGTTVTVSS VL: QIVLTQSPAIMSASPGEKVTISCSASSSVSYMYWYQQKPGSSPKPWIYRTSNLASGVPARFSGSGSGTSYSLTISSMEAEDAATYYCQQYHSYPATFGGGTKLEIK ; field requested: EC50 (read off the curve)
~0.3 nM
